experiment: CHI Log D procedure; assay type: physicochemical; conditions: pH 7.4, CHI Log D
measurement_type: chromatographic logD
Give your answer as a number; write no unit.

INSERT INTO measurements (molecule, measurement_type, endpoint_value) VALUES
  ('CC(=O)N[C@@H](Cc1ccccc1)C(=O)N[C@@H](CC(=O)O)C(=O)N[C@@H](C)C(=O)N[C@]1(C)CCN(C)C(=O)OCC=CCCCCC[C@@](C)(C(=O)N[C@@H](Cc2ccccc2)C(=O)N[C@@H](Cc2c[nH]c3ccccc23)C(=O)N[C@@H](CCC(N)=O)C(N)=O)NC(=O)[C@H](C(C)C)NC(=O)[C@H](Cc2ccccc2)NC(=O)[C@H](C)NC(=O)[C@H](C)NC(=O)[C@H](CC(=O)O)NC(=O)[C@H](CC(=O)O)NC1=O (single isomer, unassigned)', 'chromatographic logD', 1.27);

# input for lookup
Query: Which chromatographic logD value is on record for CCNC(=O)[C@H](CCC(N)=O)NC(=O)[C@H](Cc1csc2ccccc12)NC(=O)[C@H](Cc1ccccc1Cl)NC(=O)[C@]12CCN(C1)C(=O)OCCCC=CCCCC1(CCCC=CC[C@]3(CCCN3C(C)=O)C(=O)N[C@@H](CC(=O)O)C(=O)N[C@@H](CC(C)(C)C)C(=O)N1)C(=O)N[C@@H](CC(=O)O)C(=O)N[C@@H](CC(=O)O)C(=O)N[C@@H](C)C(=O)N[C@@H](C)C(=O)N[C@@H](Cc1ccccc1)C(=O)N[C@@H](CC(N)=O)C(=O)N2 (some centres unmarked) ?
Reply: 2.5
